This section presents molecules with their documented inhibition values.
molecular target: Dual specificity mitogen-activated protein kinase kinase 1 (Homo sapiens); settings: at 0.1 µM
Report the figure in % without appending any unit label.

Some solved entries appear below for comparison.
{"Compound Smiles": "COc1ccc(-c2nn3ncccc3c2-c2ccnc(Nc3ccc(Cl)c(C(F)(F)F)c3)n2)cc1", "Target": "Dual specificity mitogen-activated protein kinase kinase 1 (Homo sapiens)", "Parameter Measured": "inhibition", "Numeric Value": 2.33}
{"Compound Smiles": "COc1ccc(COc2ccc(Cc3cnc(N)nc3N)cc2OC)cc1", "Target": "Dual specificity mitogen-activated protein kinase kinase 1 (Homo sapiens)", "Parameter Measured": "inhibition", "Numeric Value": 1.66}
{"Compound Smiles": "CS(=O)(=O)Nc1ccc(N/C=C2\\C(=O)Nc3ccccc32)cc1", "Target": "Dual specificity mitogen-activated protein kinase kinase 1 (Homo sapiens)", "Parameter Measured": "inhibition", "Numeric Value": -3.18}
{"Compound Smiles": "NC(=O)c1cccc(Nc2nccc(Nc3cccc4[nH]ncc34)n2)c1", "Target": "Dual specificity mitogen-activated protein kinase kinase 1 (Homo sapiens)", "Parameter Measured": "inhibition", "Numeric Value": -4}
{"Compound Smiles": "CCn1c(-c2nonc2N)nc2cncc(C(=O)N3CCNCC3)c21", "Target": "Dual specificity mitogen-activated protein kinase kinase 1 (Homo sapiens)", "Parameter Measured": "inhibition", "Numeric Value": 5.61}
{"Compound Smiles": "COc1ccc(-c2coc3ncnc(N)c23)cc1", "Target": "Dual specificity mitogen-activated protein kinase kinase 1 (Homo sapiens)", "Parameter Measured": "inhibition", "Numeric Value": 5.34}

Enquiry: What value of inhibition on Dual specificity mitogen-activated protein kinase kinase 1 (Homo sapiens) does `Nc1ncnc2occ(-c3ccc(NC(=O)Nc4cccc(C(F)(F)F)c4)cc3)c12` have?
Return: 4.53

Enquiry: // map `NS(=O)(=O)c1ccc(N/N=C2\C(=O)Nc3ccc(C(=O)NCCc4c[nH]cn4)cc32)cc1` to recorded inhibition (system: Dual specificity mitogen-activated protein kinase kinase 1 (Homo sapiens))
Return: 6.81

Enquiry: Param readout = inhibition; param system = Dual specificity mitogen-activated protein kinase kinase 1 (Homo sapiens); param query = `Nc1nc(-c2ccc3c(c2)C(=Cc2cc(Br)c(O)c(Br)c2)C(=O)N3)cs1` ; response: value
Return: -1.03

Enquiry: Request body: readout inhibition, system Dual specificity mitogen-activated protein kinase kinase 1 (Homo sapiens), query `COC(=O)Nc1nc2cc(Oc3cccc(NC(=O)Nc4cc(C(F)(F)F)ccc4F)c3)ccc2[nH]1` . Return the value.
Return: 0.59

Enquiry: Param readout= inhibition; system= Dual specificity mitogen-activated protein kinase kinase 1 (Homo sapiens); entry= `COc1cc(C)c(NC(=O)CN(C)C)cc1Nc1nc(Nc2cccc(F)c2C(N)=O)c2cc[nH]c2n1` ; returns value.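 Also: reported value is a mean percent inhibition.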
Return: 3.12

###

target: Tyrosine-protein kinase JAK1 (Homo sapiens) (UniProt P23458); conditions: at 0.1 µM
Sequence (P23458 whole entry): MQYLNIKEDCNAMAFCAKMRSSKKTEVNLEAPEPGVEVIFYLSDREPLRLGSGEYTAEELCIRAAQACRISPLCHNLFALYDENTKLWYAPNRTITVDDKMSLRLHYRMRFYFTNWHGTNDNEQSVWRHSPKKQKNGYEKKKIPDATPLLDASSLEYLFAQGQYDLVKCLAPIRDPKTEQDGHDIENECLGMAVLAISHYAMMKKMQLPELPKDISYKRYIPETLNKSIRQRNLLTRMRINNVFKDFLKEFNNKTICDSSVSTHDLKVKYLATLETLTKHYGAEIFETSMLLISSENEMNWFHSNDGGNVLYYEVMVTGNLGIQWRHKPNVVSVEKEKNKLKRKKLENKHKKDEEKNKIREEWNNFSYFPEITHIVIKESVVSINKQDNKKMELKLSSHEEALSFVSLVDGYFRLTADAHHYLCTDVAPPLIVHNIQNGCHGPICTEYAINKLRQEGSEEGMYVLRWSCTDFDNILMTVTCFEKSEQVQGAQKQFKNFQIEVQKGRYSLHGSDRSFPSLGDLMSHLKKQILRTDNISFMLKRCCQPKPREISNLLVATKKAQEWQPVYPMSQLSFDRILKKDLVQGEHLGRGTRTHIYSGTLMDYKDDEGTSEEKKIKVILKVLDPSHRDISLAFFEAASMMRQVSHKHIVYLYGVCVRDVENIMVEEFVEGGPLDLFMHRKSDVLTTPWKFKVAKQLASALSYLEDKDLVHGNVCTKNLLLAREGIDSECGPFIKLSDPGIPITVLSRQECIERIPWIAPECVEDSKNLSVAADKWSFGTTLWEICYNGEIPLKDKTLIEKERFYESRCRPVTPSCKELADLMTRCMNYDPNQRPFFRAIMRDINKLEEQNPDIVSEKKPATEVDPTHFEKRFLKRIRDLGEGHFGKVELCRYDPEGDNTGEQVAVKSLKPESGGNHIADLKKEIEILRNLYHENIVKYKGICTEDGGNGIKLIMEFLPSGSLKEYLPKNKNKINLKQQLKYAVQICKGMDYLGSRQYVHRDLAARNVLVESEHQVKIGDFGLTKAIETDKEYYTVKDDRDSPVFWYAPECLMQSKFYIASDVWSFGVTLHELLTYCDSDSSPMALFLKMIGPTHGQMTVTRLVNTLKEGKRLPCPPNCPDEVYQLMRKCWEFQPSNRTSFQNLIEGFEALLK
Description: GSK_PKIS: JAK1 mean inhibition at 0.1 uM [Nanosyn]
Parameter Measured: inhibition (%)
Numbers only here, please. The scale is %.

Take a look at these entries with their results.
{"Compound Smiles": "O=C(Nc1n[nH]c2nc(-c3ccco3)c(Br)cc12)C1CC1", "inhibition / %": 2.41}
{"Compound Smiles": "Cc1ccc(NC(=O)c2ccnc(N3CCCC3)c2)cc1-c1ccc(C(=O)NCC2CC2)cc1", "inhibition / %": 4.61}
{"Compound Smiles": "Fc1cccc(COc2ccc(Nc3ncnc4cc(-c5ccc[nH]5)sc34)cc2Cl)c1", "inhibition / %": 2.84}

Please find the next compound below.
Enquiry: Any idea what inhibition came out for `CS(=O)(=O)CCNCc1ccc(-c2ccc3ncnc(Nc4ccc(OCc5cccc(F)c5)c(C(F)(F)F)c4)c3c2)o1` on Tyrosine-protein kinase JAK1 (Homo sapiens) (UniProt P23458)?
Return: 3.98

###

Listed below: inhibition values for each entry.
biological target: Serine/threonine-protein kinase Nek6 (Homo sapiens) (UniProt Q9HC98); conditions: at 1 µM;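 also: values are mean inhibition of NEK6 from the GSK PKIS screen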
Sequence (Q9HC98 whole entry): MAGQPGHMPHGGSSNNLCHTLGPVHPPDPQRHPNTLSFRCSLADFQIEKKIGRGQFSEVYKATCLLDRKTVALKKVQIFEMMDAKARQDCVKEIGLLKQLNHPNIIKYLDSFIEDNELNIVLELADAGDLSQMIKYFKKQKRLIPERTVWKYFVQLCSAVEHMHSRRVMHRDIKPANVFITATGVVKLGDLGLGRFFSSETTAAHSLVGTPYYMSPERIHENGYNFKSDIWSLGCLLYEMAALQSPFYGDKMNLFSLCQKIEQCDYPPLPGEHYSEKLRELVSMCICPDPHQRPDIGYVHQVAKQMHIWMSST
Please state the figure in %; there is no need to write the unit.

Enquiry: State the recorded inhibition for this entry: `O=C1NC(=O)C(c2ccccc2Cl)=C1Nc1cccc(O)c1`
Return: -0.89

Enquiry: Look up inhibition for this molecule: CC1=C(C(=O)Nc2ccc3[nH]ncc3c2)C(c2ccc(Cl)c(Cl)c2)CC(=O)N1 (configuration not stated)
Return: -2.51

Enquiry: May I ask what inhibition has been recorded for `CCn1c(-c2nonc2N)nc2c(C#CC(C)(C)O)nc(OC[C@@H](N)c3ccccc3)cc21` ?
Return: 3.35

Enquiry: Given the molecule `Nc1ncnc2occ(-c3ccc(NC(=O)Nc4cc(C(F)(F)F)cc(C(F)(F)F)c4)cc3)c12` , what is its reported inhibition?
Return: 0.99

Enquiry: Fill in: inhibition of `Fc1cccc(COc2ccc(Nc3ncnc4cc(-c5ccc[nH]5)sc34)cc2Cl)c1` is ___
Return: 3.84

###

target: MAP kinase-interacting serine/threonine-protein kinase 2 (Homo sapiens); conditions: at 1 µM
Description: GSK_PKIS: MNK2 mean inhibition at 1 uM [Nanosyn]
Parameter Measured: inhibition (%)
Answer format: numeric, % implied, no suffix.

Guide cases for inhibition, answers given:
{"Compound": "NS(=O)(=O)c1cccc(-c2ccc3c(NC(=O)C4CC4)n[nH]c3c2)c1", "Numeric Value": 1.02}
{"Compound": "CS(=O)(=O)CCNCc1ccc(-c2ccc3ncnc(Nc4ccc(OCc5ccccc5)c(Cl)c4)c3c2)o1", "Numeric Value": 9.71}
{"Compound": "COC(=O)Nc1nc2cc(Oc3cccc(NC(=O)Nc4cc(C(F)(F)F)ccc4F)c3)ccc2[nH]1", "Numeric Value": -0.05}
{"Compound": "COc1ccccc1Nc1ncc(-c2ccccc2)o1", "Numeric Value": 7.25}
{"Compound": "Cc1nn(C)c2cc(N(C)c3ccnc(Nc4cccc(S(N)(=O)=O)c4)n3)ccc12", "Numeric Value": 7.27}

Enquiry: # inhibition lookup, item `COc1cc2c(cc1Nc1nc(N3CCc4ccccc43)c3cc[nH]c3n1)N(C(=O)CN(C)C)CC2`
Return: 7.67

Enquiry: Bench note: what inhibition did `Nc1ncnc2occ(-c3ccc(NC(=O)Nc4cccc(C(F)(F)F)c4)cc3)c12` show?
Return: 53.9

###

target: cGMP-dependent protein kinase 2 (Homo sapiens) (UniProt Q13237); conditions: at 0.1 µM;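 also: reported figure is a mean inhibition value against PRKG2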
Sequence (Q13237 whole entry): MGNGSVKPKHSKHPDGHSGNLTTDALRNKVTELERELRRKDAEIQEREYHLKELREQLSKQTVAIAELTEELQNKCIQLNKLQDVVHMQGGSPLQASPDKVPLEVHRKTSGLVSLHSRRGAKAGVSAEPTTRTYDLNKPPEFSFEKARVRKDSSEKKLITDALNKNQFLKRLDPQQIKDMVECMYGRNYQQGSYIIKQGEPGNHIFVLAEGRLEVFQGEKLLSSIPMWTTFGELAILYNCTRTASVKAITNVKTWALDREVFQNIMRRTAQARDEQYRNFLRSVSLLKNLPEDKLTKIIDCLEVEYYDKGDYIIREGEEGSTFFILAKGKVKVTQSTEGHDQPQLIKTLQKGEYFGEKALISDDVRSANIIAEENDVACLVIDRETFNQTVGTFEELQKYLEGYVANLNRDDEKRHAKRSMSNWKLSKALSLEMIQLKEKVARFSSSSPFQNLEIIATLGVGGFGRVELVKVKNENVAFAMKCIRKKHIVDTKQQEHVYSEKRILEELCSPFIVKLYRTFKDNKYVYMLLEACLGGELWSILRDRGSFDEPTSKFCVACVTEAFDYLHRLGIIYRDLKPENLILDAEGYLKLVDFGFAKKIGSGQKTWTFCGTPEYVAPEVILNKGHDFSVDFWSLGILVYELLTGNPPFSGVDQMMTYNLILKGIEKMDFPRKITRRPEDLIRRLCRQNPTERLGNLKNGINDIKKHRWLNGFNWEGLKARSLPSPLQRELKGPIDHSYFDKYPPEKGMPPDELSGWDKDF
Known inhibition of a selection of compounds
Give the number; % is assumed, so skip it.

{"Compound": "CC(=O)Nc1cccc(C#Cc2cncnc2Nc2ccc(OCc3cccc(F)c3)c(Cl)c2)n1", "Unit Symbol": "%", "Numeric Value": 3.49}
{"Compound": "COc1cc2c(cc1Nc1nc(N3CCc4ccccc43)c3cc[nH]c3n1)N(C(=O)CN(C)C)CC2", "Unit Symbol": "%", "Numeric Value": 2.18}
{"Compound": "CS(=O)(=O)Nc1ccc(N/C=C2\\C(=O)Nc3ccccc32)cc1", "Unit Symbol": "%", "Numeric Value": -0.94}
{"Compound": "COc1ccc2cc(-c3c(-c4ccncc4)nc(-c4ccc([S+](C)[O-])cc4)n3C)ccc2c1 (stereo not given)", "Unit Symbol": "%", "Numeric Value": 2.83}
{"Compound": "[O-][S+]1CCN(Cc2ccc(-c3ccc4ncnc(Nc5ccc(OCc6ccccc6)c(F)c5)c4c3)o2)CC1", "Unit Symbol": "%", "Numeric Value": 0.25}
{"Compound": "O=C(Nc1n[nH]c2nc(-c3ccco3)c(Br)cc12)C1CC1", "Unit Symbol": "%", "Numeric Value": 1.15}
{"Compound": "Fc1cccc(COc2ccc(Nc3ncnc4cc(-c5ccc[nH]5)sc34)cc2Cl)c1", "Unit Symbol": "%", "Numeric Value": 2.82}
{"Compound": "CN(C)c1cc2c(Nc3ccc4nc(Cc5ccccc5)[nH]c4c3)ncnc2cn1", "Unit Symbol": "%", "Numeric Value": 2.1}

Enquiry: Return reported inhibition; argument: `CCn1c(-c2nonc2N)nc2c(N3CCCC3)nccc21`
Return: 1.09

Enquiry: Look up inhibition for this compound: `COc1cc2ncn(-c3cc(OCc4ccccc4C(F)(F)F)c(C(N)=O)s3)c2cc1OC`
Return: 1.68

Enquiry: What value of measured inhibition is listed for `Cc1nn(C)c2cc(N(C)c3ccnc(Nc4cccc(S(N)(=O)=O)c4)n3)ccc12` ?
Return: 2.42

Enquiry: Name the recorded inhibition for `Cn1cc(C=C2C(=O)Nc3cccnc32)c2ccccc21` .
Return: 1.83

Enquiry: For the compound `CCn1c(-c2nonc2N)nc2cncc(C(=O)N3CC[C@H](N)C3)c21` , what inhibition is on record?
Return: 72.7

Enquiry: Fill blank: measured inhibition of the compound `COC(=O)Nc1nc2cc(Oc3cccc(NC(=O)Nc4cc(C(F)(F)F)ccc4F)c3)ccc2[nH]1` is ____.
Return: 1.2

###

target: Proto-oncogene tyrosine-protein kinase ROS (Homo sapiens); details: at 1 µM;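 also: value given is the mean percent inhibition of ROS kinase activity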
Parameter Measured: inhibition (%)
Report only the number, with the unit % understood.

Check out these entries, answers already filled in.
{"Compound": "COc1cc2ncn(-c3cc(OCc4ccccc4C(F)(F)F)c(C(N)=O)s3)c2cc1OC", "Unit Symbol": "%", "inhibition": 20.6}
{"Compound": "CCn1c(-c2nonc2N)nc2c(C#CC(C)(C)O)nc(CN3CCCC3)cc21", "Unit Symbol": "%", "inhibition": 3.85}
{"Compound": "O=C1NC(=O)C(c2ccc(Cl)cc2)=C1Nc1ccc(Cl)c(C(=O)O)c1", "Unit Symbol": "%", "inhibition": 3.13}
{"Compound": "CCn1c(-c2nonc2N)nc2cncc(C(=O)N3CC[C@H](N)C3)c21", "Unit Symbol": "%", "inhibition": 6.07}
{"Compound": "Cc1ccc(NC(=O)c2ccnc(N3CCCC3)c2)cc1-c1ccc(C(=O)NCC2CC2)cc1", "Unit Symbol": "%", "inhibition": 12}

Here's the next entry for you.
Enquiry: GET /values?readout=inhibition&item= `CCCN1CCC(Oc2cc(Nc3nc(Nc4cccc(F)c4C(N)=O)c4cc[nH]c4n3)c(OC)cc2Cl)CC1`
Return: 38.9
